target: Estrogen receptor (Homo sapiens) (UniProt P03372)
Sequence (P03372 whole entry, looked up): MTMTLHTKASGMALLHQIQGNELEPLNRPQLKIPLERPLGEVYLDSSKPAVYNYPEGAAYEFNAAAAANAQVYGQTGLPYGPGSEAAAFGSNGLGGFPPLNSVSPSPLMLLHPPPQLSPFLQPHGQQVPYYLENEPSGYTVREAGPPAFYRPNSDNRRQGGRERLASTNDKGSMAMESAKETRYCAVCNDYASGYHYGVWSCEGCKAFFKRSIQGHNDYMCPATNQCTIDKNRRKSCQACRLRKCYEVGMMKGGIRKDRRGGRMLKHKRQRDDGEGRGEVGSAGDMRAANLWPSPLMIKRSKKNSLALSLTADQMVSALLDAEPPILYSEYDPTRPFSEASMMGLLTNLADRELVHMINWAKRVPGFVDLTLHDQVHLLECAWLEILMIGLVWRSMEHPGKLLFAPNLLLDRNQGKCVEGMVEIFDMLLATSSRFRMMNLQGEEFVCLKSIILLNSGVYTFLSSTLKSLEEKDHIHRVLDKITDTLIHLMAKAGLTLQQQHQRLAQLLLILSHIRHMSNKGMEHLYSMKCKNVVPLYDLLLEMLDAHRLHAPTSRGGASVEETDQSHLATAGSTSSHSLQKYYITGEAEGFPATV
measurement description: qHTS assay to identify small molecule antagonists of the estrogen receptor alpha (ER-alpha) signaling pathway using the BG1 cell line in the presence of 0.1 nM 17-beta-estradiol (AID 1259244); also: nearly all actives have a fitted effect of over 50% in size
experimental setup: VM7Luc4E2 (BG1) ERE-luciferase, antagonist mode, 0.1 nM E2, 22 h; series mostly up to 92.4 µM
Records with an inconclusive call do not appear. The source made the active and inactive calls. Calls follow the shape of the dose curve; as a rule, active = well fitted inhibition curve with a large enough effect in the repeat runs; inconclusive = weak or mixed curves; inactive = no such curve, though single readings can be large or run the other way.
Outcome (select one): active, inactive

Please review the following examples before continuing.
compound	cat
CC1(C)O[C@@H]2C[C@H]3[C@@H]4C[C@H](F)C5=CC(=O)C=C[C@]5(C)[C@H]4[C@@H](O)C[C@]3(C)[C@]2(C(=O)CO)O1	inactive
Cc1ccccc1N=C(N)Nc1ccccc1C	inactive
C[C@@H](CN(C)C)CN1c2ccccc2Sc2ccccc21	inactive

# input Each compound tested received a call. Report the one for CC(C)=CCC/C(C)=C/CC/C(C)=C/CCC(=O)OC/C=C(\C)CCC=C(C)C .
# output inactive

# input What call does the record list for CN(C)CCC=C1c2ccccc2C=Cc2ccccc21 ?
# output inactive

# input Dear all, I need the recorded test outcome for CCC(C)COC(=O)CC(C)C (stereo not given) , thank you.
# output inactive

# input Hello, I am checking results. What call was entered for CC(C)C[C@H](NC(=O)[C@H](CCc1ccccc1)NC(=O)CN1CCOCC1)C(=O)N[C@@H](Cc1ccccc1)C(=O)N[C@@H](CC(C)C)C(=O)[C@@]1(C)CO1 ?
# output active
